IC50: recorded values
Biological target: CYP2C9 (Homo sapiens)
Experiment: biochemical

> print(dat)
                                   molecule  endpoint.name   result
1  NC(=O)/C(=N\OCC(=O)O)c1nc2ccccc2n([C@H]2C[C@H]3CCC[C@@H](C2)N3C2CC3CCCC(C3)C2)c1=O (stereo partly drawn) [Compound 40]           IC50  > 20 µM
2  CON=C(CCC(=O)O)c1nc2ccccc2n([C@H]2C[C@H]3CCC[C@@H](C2)N3C2CC3CCCC(C3)C2)c1=O (stereo partly drawn) [Compound 2]           IC50  > 20 µM

Now for the molecule whose IC50 we want.
In: Entry under review: COCCO/N=C(\C(=O)O)c1nc2ccccc2n([C@H]2C[C@H]3CCC[C@@H](C2)N3C2CC3CCCCC(C3)C2)c1=O (stereo partly drawn) [Compound 46] . Reported IC50?
Out: > 20 µM

---

Listed here are molecules together with their documented pIC50.
Target: CYP2C9 (Homo sapiens, UniProt P11712)
Sequence (P11712 whole entry): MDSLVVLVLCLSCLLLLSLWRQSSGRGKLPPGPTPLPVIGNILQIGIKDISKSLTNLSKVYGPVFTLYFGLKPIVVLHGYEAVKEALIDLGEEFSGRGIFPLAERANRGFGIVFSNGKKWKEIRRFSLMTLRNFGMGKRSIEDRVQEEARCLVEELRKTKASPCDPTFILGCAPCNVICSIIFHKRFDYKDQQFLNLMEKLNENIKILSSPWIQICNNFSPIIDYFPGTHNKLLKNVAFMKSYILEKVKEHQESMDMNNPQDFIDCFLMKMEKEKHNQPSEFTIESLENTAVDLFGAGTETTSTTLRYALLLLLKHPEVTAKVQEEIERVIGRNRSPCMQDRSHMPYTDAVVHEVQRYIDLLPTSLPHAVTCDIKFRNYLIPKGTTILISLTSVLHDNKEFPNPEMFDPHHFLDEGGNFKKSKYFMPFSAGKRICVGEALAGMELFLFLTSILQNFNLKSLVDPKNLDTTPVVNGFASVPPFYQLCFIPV
pIC50: −log10 of the molar value.

In: Report pIC50 for CCON=C(C(=O)O)c1nc2ccccc2n([C@H]2C[C@H]3CCC[C@@H](C2)N3C2CC3CCCC(C3)C2)c1=O (stereo partly drawn) tested on CYP2C9 (Homo sapiens, UniProt P11712).
Out: < 4.70

In: Form field: pIC50 recorded for CO/N=C(\CCC(=O)O)c1nc2ccccc2n([C@H]2C[C@H]3CCC[C@@H](C2)N3C2CCCCCCCCC2)c1=O with CYP2C9 (Homo sapiens, UniProt P11712) (enter value)
Out: < 4.70

In: pIC50 of C/C(=N\OCC(=O)O)c1nc2ccccc2n([C@H]2C[C@H]3CCC[C@@H](C2)N3C2CCCCCCCCC2)c1=O on CYP2C9 (Homo sapiens, UniProt P11712)?
Out: < 4.70

In: Fill in the recorded pIC50 for this molecule, with CYP2C9 (Homo sapiens, UniProt P11712) as test system: NC(=O)CO/N=C(\C(=O)O)c1nc2ccccc2n([C@H]2C[C@H]3CCC[C@@H](C2)N3C2CC3CCCCC(C3)C2)c1=O (stereo partly drawn)
Out: < 4.70

In: Form entry - test system: CYP2C9 (Homo sapiens, UniProt P11712); read-out: pIC50; molecule: O=C(O)C(=NOCCO)c1nc2ccccc2n([C@H]2C[C@H]3CC[C@@H](C2)N3C2CC3CCCCC(C3)C2)c1=O (stereo partly drawn)
Out: < 4.70

In: Requested read-out pIC50, target or system CYP2C9 (Homo sapiens, UniProt P11712), entry CCC1CC2CC(C1)CC(N1[C@@H]3CCC[C@H]1C[C@@H](n1c(=O)c(/C(CCC(=O)O)=N/OCCN(C)C)nc4ccccc41)C3)C2 (stereo partly drawn)
Out: < 4.70

---

Here's a batch of molecules along with measured pIC50 for CYP1A2 (Homo sapiens).
pIC50: −log10 of the molar value.

Example molecules with recorded pIC50:
> print(dat)
                                   molecule  result
1  CNC(=O)CON=C(C(=O)O)c1nc2ccccc2n([C@H]2C[C@H]3CCC[C@@H](C2)N3C2CC3CCCC(C3)C2)c1=O (stereo partly drawn)  < 4.70
2  O=C(O)/C(=N\OCCO)c1nc2ccccc2n([C@H]2C[C@H]3CCC[C@@H](C2)N3C2CC3CCCC(C3)C2)c1=O (stereo partly drawn)  < 4.70

Now, please, on to the next molecule.
In: GET /values?readout=pIC50&item= CNC(=O)CCC(=NOCC(=O)O)c1nc2ccccc2n([C@H]2C[C@H]3CCC[C@@H](C2)N3C2CC3CCCCC(C3)C2)c1=O (stereo partly drawn)
Out: < 4.70

---

pIC50: −log10 of the molar value.
# pIC50 measurements, system: CYP3A4 (Homo sapiens, UniProt P08684)
# Sequence (P08684 whole entry): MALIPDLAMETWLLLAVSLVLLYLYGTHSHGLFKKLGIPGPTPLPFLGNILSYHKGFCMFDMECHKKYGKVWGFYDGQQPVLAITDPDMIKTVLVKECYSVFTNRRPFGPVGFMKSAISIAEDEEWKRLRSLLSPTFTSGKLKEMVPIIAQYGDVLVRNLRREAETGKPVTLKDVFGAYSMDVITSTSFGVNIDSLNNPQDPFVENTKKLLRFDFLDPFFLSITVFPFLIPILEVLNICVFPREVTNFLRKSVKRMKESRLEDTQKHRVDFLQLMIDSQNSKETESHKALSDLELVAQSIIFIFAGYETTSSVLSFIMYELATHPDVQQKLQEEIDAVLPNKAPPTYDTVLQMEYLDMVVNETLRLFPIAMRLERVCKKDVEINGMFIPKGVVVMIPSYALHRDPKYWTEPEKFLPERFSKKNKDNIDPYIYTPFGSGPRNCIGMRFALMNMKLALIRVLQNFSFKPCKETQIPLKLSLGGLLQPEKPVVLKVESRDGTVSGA

In: Form field: reported pIC50 of CO/N=C(\CCC(=O)O)c1nc2ccccc2n([C@H]2C[C@H]3CCC[C@@H](C2)N3C2CCCCCCCC2)c1=O
Out: < 4.70

In: What value of measured pIC50 is listed for O=C(O)CCC(=NOCCO)c1nc2ccccc2n([C@H]2C[C@H]3CCC[C@@H](C2)N3C2CC3CCCC(C3)C2)c1=O (stereo partly drawn) ?
Out: < 4.70

In: May I ask what pIC50 has been recorded for CNC(=O)/C(=N\OCC(=O)O)c1nc2ccccc2n([C@H]2C[C@H]3CCC[C@@H](C2)N3C2CC3CCCC(C3)C2)c1=O (stereo partly drawn) ?
Out: < 4.70

In: Bench note: what pIC50 did NC(=O)/C(=N\OCC(=O)O)c1nc2ccccc2n([C@H]2C[C@H]3CCC[C@@H](C2)N3C2CC3CCCC(C3)C2)c1=O (stereo partly drawn) show?
Out: < 4.70

In: Would you mind telling me what pIC50 value was observed for CC(O/N=C(\C(=O)O)c1nc2ccccc2n([C@H]2C[C@H]3CCC[C@@H](C2)N3C2CC3CCCC(C3)C2)c1=O)C(N)=O (stereo partly drawn) ?
Out: < 4.70

In: Entry CCC1CC2CC(C1)CC(N1[C@@H]3CCC[C@H]1C[C@@H](n1c(=O)c(/C(CCC(=O)O)=N/OCCN(C)C)nc4ccccc41)C3)C2 (stereo partly drawn) : reported pIC50 = ?
Out: 4.76

---

Biological target: CYP3A4 (Homo sapiens, UniProt P08684)
A collection of compounds and their measured IC50

In: Quick check: IC50 on CYP3A4 (Homo sapiens, UniProt P08684), item CNC(=O)CCC(=NOCC(=O)O)c1nc2ccccc2n([C@H]2C[C@H]3CCC[C@@H](C2)N3C2CC3CCCCC(C3)C2)c1=O (stereo partly drawn) [Compound 58] ?
Out: > 20 µM

In: # returns recorded IC50 (system: CYP3A4 (Homo sapiens, UniProt P08684)) for NC(=O)CO/N=C(\C(N)=O)c1nc2ccccc2n([C@H]2C[C@H]3CCC[C@@H](C2)N3C2CC3CCCCC(C3)C2)c1=O (stereo partly drawn) [Compound 66]
Out: > 20 µM

In: // map CCO/N=C(\CCC(=O)O)c1nc2ccccc2n([C@H]2C[C@H]3CCC[C@@H](C2)N3C2CC3CCCC(C3)C2)c1=O (stereo partly drawn) [Compound 11] to recorded IC50 (system: CYP3A4 (Homo sapiens, UniProt P08684))
Out: > 20 µM

---

Record set of IC50 for target or system UniProtKB P08684.

> print(dat)
                                   compound  experimental.target   result
1  CN(C)C(=O)C(=NOCC(=O)O)c1nc2ccccc2n([C@H]2C[C@H]3CCC[C@@H](C2)N3C2CC3CCCC(C3)C2)c1=O (stereo partly shown)     UniProtKB P08684  > 20 µM
2  CON=C(CCC(=O)O)c1nc2ccccc2n([C@H]2C[C@H]3CC[C@@H](C2)N3C2CC3CCCCC(C3)C2)c1=O (stereo partly shown)     UniProtKB P08684  > 20 µM
3  CC[C@@H]1C[C@H]2CC(N3[C@@H]4CCC[C@H]3CC(n3c(=O)c(/C(CCC(=O)O)=N/OC)nc5ccccc53)C4)C[C@@H](C1)C2 (stereo partly shown)     UniProtKB P08684  > 20 µM
4  CCON=C(C(=O)O)c1nc2ccccc2n([C@H]2C[C@H]3CC[C@@H](C2)N3C2CC3CCCCC(C3)C2)c1=O (stereo partly shown)     UniProtKB P08684  > 20 µM
5  NC(=O)CCC(=NOCC(=O)O)c1nc2ccccc2n([C@H]2C[C@H]3CCC[C@@H](C2)N3C2CC3CCCCC(C3)C2)c1=O (stereo partly shown)     UniProtKB P08684  > 20 µM

In: Fill blank: measured IC50 of the compound CC1CC2CC(C1)CC(N1[C@@H]3CCC[C@H]1C[C@@H](n1c(=O)c(/C(CCC(=O)O)=N/OCCN(C)C)nc4ccccc41)C3)C2 (stereo partly shown) is ____.
Out: > 20 µM

In: Record request: IC50 value, item CCON=C(C(=O)O)c1nc2ccccc2n([C@H]2C[C@H]3CCC[C@@H](C2)N3C2CC3CCCCC(C3)C2)c1=O (stereo partly shown)
Out: > 20 µM

In: # input compound: O=C(O)CCC(=NO)c1nc2ccccc2n([C@H]2C[C@H]3CCC[C@@H](C2)N3C2CC3CCCC(C3)C2)c1=O (stereo partly shown) ; wanted: its IC50
Out: > 20 µM

In: Return reported IC50; argument: NC(=O)CO/N=C(\CCC(=O)O)c1nc2ccccc2n([C@H]2C[C@H]3CCC[C@@H](C2)N3C2CC3CCCC(C3)C2)c1=O (stereo partly shown)
Out: > 20 µM

In: Consider the compound shown here: CON=C(CCC(=O)O)c1nc2ccccc2n([C@H]2C[C@H]3COC[C@@H](C2)N3C2CC3CCCCC(C3)C2)c1=O (stereo partly shown) What is its recorded IC50?
Out: > 20 µM

In: Fill in: IC50 of O=C(O)C(=NOCCO)c1nc2ccccc2n([C@H]2C[C@H]3CC[C@@H](C2)N3C2CC3CCCCC(C3)C2)c1=O (stereo partly shown) is ___
Out: > 20 µM

In: Look at this compound and give its reported IC50. CC(C)O/N=C(\C(=O)O)c1nc2ccccc2n([C@H]2C[C@H]3CCC[C@@H](C2)N3C2CC3CCCCC(C3)C2)c1=O (stereo partly shown)
Out: > 20 µM

In: Please look up its IC50: CNC(=O)CCC(=NOCC(=O)O)c1nc2ccccc2n([C@H]2C[C@H]3CCC[C@@H](C2)N3C2CC3CCCC(C3)C2)c1=O (stereo partly shown)
Out: > 20 µM

Hello, the source for this data is patent US9040533B2, in case you need it.
